System: CAKI-1 renal
Experiment: NCI-60 one-dose screen, 48 h (100 = growth as untreated, 0 = no growth, -100 = all killed)
Details: 10 µM unless noted
About 83,000 compounds went through this panel and 20% of them were active in at least one assay; those are over-represented in the sample as a whole. Activity calls are given as the source filed them. Rule for the calls: active = growth percent below 10; inactive = the rest.
REPORTED PROPERTY: growth

[[record]]
sample_smiles = "Nc1c(C(=O)c2ccccc2)sc2nc(-c3cccs3)ccc12"
reported_property = "growth"
reported_measurement = "38.5% (inactive)"

[[record]]
sample_smiles = "C=CCN1C(=O)c2cccc3c(-c4ccc5c(c4)ncn5C4CCCCC4)ccc(c23)C1=O"
reported_property = "growth"
reported_measurement = "52.2% (inactive)"

[[record]]
sample_smiles = "CN(c1ncccc1CNc1nc(Nc2ccc3c(c2)CC(=O)N3)ncc1C(F)(F)F)S(C)(=O)=O"
reported_property = "growth"
reported_measurement = "12.1% (inactive)"

[[record]]
sample_smiles = "O=C(Cn1ccc2ccccc21)Nc1ccc(-c2nc3ccccc3s2)cc1"
reported_property = "growth"
reported_measurement = "100% (inactive)"

[[record]]
sample_smiles = "CCN(CCCOc1ccc2c(Nc3cc(CC(=O)Nc4cccc(F)c4)[nH]n3)ncnc2c1)CCOP(=O)(O)O"
reported_property = "growth"
reported_measurement = "58.1% (inactive)"

[[record]]
sample_smiles = "CO[C@H]1C[C@@H]2CC[C@@H](C)[C@@](O)(O2)C(=O)C(=O)N2CCCC[C@H]2C(=O)O[C@H]([C@H](C)C[C@@H]2CC[C@@H](OP(C)(C)=O)[C@H](OC)C2)CC(=O)[C@H](C)/C=C(\\C)[C@@H](O)[C@@H](OC)C(=O)[C@H](C)C[C@H](C)\\C=C/C=C/C=C/1C"
reported_property = "growth"
reported_measurement = "50.1% (inactive)"

[[record]]
sample_smiles = "CC(=O)Oc1ccccc1C(=O)N=C1[Se]CCN1C(=O)c1ccccc1OC(C)=O"
reported_property = "growth"
reported_measurement = "-97.7% (active)"

[[record]]
sample_smiles = "c1cc(OCCN2CCCCC2)cc(-c2n[nH]c3ccc(-c4ncn[nH]4)cc23)c1"
reported_property = "growth"
reported_measurement = "26.6% (inactive)"


###

// growth lookup, one value per entry
Test system: LOX IMVI melanoma
Assay: NCI-60 one-dose screen, 48 h (100 = growth as untreated, 0 = no growth, -100 = all killed)
Conditions: 10 µM unless noted
About 83,000 compounds went through this panel and 20% of them were active in at least one assay; those are over-represented in the sample as a whole.
REPORTED PROPERTY: growth (%)

[[record]]
molecule = "O=C(Nc1cnn2ccc(N3CCC[C@@H]3c3cc(F)ccc3F)nc12)N1CC[C@H](O)C1"
reported_measurement = 80.1

[[record]]
molecule = "CC(C)=CCc1cc2c(cc1O)C1=C(C(=O)C3=C(C1=O)S(=O)(=O)CCN3)C(C=C(C)C)O2 (centres undefined)"
reported_measurement = -65.8

[[record]]
molecule = "CC(C)(O)CC(=O)NCCn1ccc2ncnc(Nc3ccc(Oc4cccc(C(F)(F)F)c4)c(Cl)c3)c21"
reported_measurement = 6.23

[[record]]
molecule = "COc1cc(Nc2c(C#N)cnc3cc(OCCCN4CCN(C)CC4)c(OC)cc23)c(Cl)cc1Cl"
reported_measurement = 33.1

